Biological target: HIV-1LAI envelope gp120 labeled with radioactive iodine (HIV-1 LAI), P03377
Experiment: 125I-gp120, peptide array
In this scheme, each record receives a class according to its counts minus background (counts per 20 min); the ranges are label 0: < 60; label 1: ≥ 60 and < 200; label 2: ≥ 200

binder	labelValue
IGISIDSFILLEIIKQGC (modifications not checked) [CXCR4 257-274]	label 2
WVVAVFASLPGIIFTRSQ (modifications not checked) [CCR5 153-170]	label 1
NWYFGNFLCKAVHVIYTV (modifications not checked) [CXCR4 101-118]	label 1
HVIYTVNLYSSVLILAFI (modifications not checked) [CXCR4 113-130]	label 1
ITLPFWAVDAVANWYFGN (modifications not checked) [CXCR4 89-106]	label 1
MDYQVSSPIYDINYYTSE (modifications not checked) [CCR5 1-18]	label 2
AVVHAVFALKARTVTFGV (modifications not checked) [CCR5 129-146]	label 0
SEPCQKINVKQIAARLLP (modifications not checked) [CCR5 17-34]	label 0
YVGVWIPALLLTIPDFIF (modifications not checked) [CXCR4 157-174]	label 1
VFASLPGIIFTRSQKEGL (modifications not checked) [CCR5 157-174]	label 0
FIFGFVGNMLVILILINC (modifications not checked) [CCR5 41-58]	label 2
FYPNDLWVVVFQFQHIMV (modifications not checked) [CXCR4 189-206]	label 2
QEAPERASSVYTRSTGEQ (modifications not checked) [CCR5 329-346]	label 1
DRYLAVVHAVFALKARTV (modifications not checked) [CCR5 125-142]	label 1
KRHRAVRLIFTIMIVYFL (modifications not checked) [CCR5 229-246]	label 0
VTETLGMTHCCINPIIYA (modifications not checked) [CCR5 281-298]	label 0
FLTGIVGNGLVILVMGYQ (modifications not checked) [CXCR4 49-66]	label 2
SQYQFWKNFQTLKIVILG (modifications not checked) [CCR5 185-202]	label 2
AISDLFFLLTVPFWAHYA (modifications not checked) [CCR5 73-90]	label 0
QEFFGLNNCSSSNRLDQA (modifications not checked) [CCR5 261-278]	label 1
CKAVHVIYTVNLYSSVLI (modifications not checked) [CXCR4 109-126]	label 2
QWDFGNTMCQLLTGLYFI (modifications not checked) [CCR5 93-110]	label 2
FWAVDAVANWYFGNFLCK (modifications not checked) [CXCR4 93-110]	label 1
HKWISITEALAFFHCCLN (modifications not checked) [CXCR4 281-298]	label 1
WIPALLLTIPDFIFANVS (modifications not checked) [CXCR4 161-178]	label 1
FREENANFNKIFLPTIYS (modifications not checked) [CXCR4 29-46]	label 0
MVGLILPGIVILSCYCII (modifications not checked) [CXCR4 205-222]	label 1
QRPRKLLAEKVVYVGVWI (modifications not checked) [CXCR4 145-162]	label 1
VKQIAARLLPPLYSLVFI (modifications not checked) [CCR5 25-42]	label 0
